All figures here come from ChEMBL document CHEMBL2062460.

Test system: Staphylococcus aureus
Assay: Antibacterial activity against methicillin-susceptible Staphylococcus aureus clinical isolate 369/09 after 18 hrs by twofold serial agar dilution technique
Type: functional
Details: clinical isolate 369/09, 18 h
The following compounds are shown together with reported MIC values.
Kindly answer with a numeric value in µg/mL, unit omitted.

S=C(Nc1ccc(I)cc1)Nc1nc[nH]n1 ... 50
S=C(Nc1ccc(Br)cc1)Nc1nc[nH]n1 ... 50
S=C(Nc1ccccc1)Nc1nc[nH]n1 ... 50
S=C(Nc1ccc(Cl)cc1)Nc1nc[nH]n1 ... 25
Fc1cccc(NC(=S)Nc2nc[nH]n2)c1 ... 12.5
S=C(Nc1nc[nH]n1)Nc1ccccc1Br ... 50

// MIC lookup, key: Fc1ccc(NC(=S)Nc2nc[nH]n2)cc1
50
